- System name: human farnesoid X receptor (Homo sapiens, UniProt Q96RI1)
- Construct: CMX-farnesoid X receptor (full length human farnesoid X receptor); expressed in transfected cells; host or cells: CV-1 African Green Monkey Kidney cells
- Sequence (Q96RI1 1-472 isoform Q96RI1-2): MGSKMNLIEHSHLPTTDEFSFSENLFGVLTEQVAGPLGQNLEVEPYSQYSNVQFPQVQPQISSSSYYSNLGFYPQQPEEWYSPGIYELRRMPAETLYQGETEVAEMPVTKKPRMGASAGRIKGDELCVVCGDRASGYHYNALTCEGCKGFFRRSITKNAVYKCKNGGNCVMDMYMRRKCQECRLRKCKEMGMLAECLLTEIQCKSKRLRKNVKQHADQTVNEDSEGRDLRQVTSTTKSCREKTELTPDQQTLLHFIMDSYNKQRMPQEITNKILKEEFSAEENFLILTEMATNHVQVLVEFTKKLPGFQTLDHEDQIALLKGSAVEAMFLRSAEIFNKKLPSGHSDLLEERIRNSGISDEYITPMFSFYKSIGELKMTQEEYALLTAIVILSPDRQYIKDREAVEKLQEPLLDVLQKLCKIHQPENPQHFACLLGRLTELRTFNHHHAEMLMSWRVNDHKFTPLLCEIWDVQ
- Sequence (P19793 whole entry partner): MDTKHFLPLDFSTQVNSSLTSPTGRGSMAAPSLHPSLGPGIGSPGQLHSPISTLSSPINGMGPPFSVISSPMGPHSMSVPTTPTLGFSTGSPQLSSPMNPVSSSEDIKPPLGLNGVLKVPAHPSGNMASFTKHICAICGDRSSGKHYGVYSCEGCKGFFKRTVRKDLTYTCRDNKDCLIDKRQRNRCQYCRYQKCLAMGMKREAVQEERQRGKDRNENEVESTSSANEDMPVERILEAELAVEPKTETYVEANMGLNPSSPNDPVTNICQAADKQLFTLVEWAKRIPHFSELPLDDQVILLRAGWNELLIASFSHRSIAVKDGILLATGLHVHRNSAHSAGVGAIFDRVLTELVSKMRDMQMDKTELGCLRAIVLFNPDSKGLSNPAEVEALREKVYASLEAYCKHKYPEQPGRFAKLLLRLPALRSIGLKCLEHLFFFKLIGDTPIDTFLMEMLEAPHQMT
- Protocol summary: FXR in vitro assays (farnesoid X receptor/ECREx7 co-transfection assay, TR-FRET assay), Table I
- Type: cell-based
- Setup conditions: agonist activity, one or more of the in vitro assays; read-out: EC50
pEC50: −log10 of the molar value.
Some compounds, each annotated with its measured pEC50.

Here is how some compounds turned out for pEC50.
>>> endpoint_value("CC1(C)OCC(COC(=O)C2=CN(C(=O)c3ccc(F)c(F)c3)CC(C)(C)c3c2[nH]c2ccccc32)O1 (centres unmarked) [Example 122]")
"6.00 to 7.00"
>>> endpoint_value("CC1(C)CN(C(=O)c2ccc(F)c(F)c2)C=C(C(=O)OCCOCc2ccccc2)c2[nH]c3ccccc3c21 [Example 195]")
"6.00 to 7.00"
>>> endpoint_value("CC(C)OC(=O)C1=CN(C(=O)c2cccc(F)c2F)CC(C)(C)c2c1[nH]c1ccccc21 [Example 74]")
"8.00 to 9.00"

Please report pEC50 for the following compound: CC(C)OC(=O)C1=CN(C(=O)c2cc(F)c(F)cc2F)CC(C)(C)c2c1[nH]c1ccccc21 [Example 79]
8.00 to 9.00

Recall and state the measured pEC50 for CC(C)OC(=O)C1=CN(C(=O)c2cc(C(F)(F)F)ccc2C(F)(F)F)CC(C)(C)c2c1[nH]c1ccccc21 [Example 137] .
6.00 to 7.00

Provide measured pEC50 value, entry: CC(C)OC(=O)C1=CN(C(=O)c2cccc(CN3CCN(S(C)(=O)=O)CC3)c2)CC(C)(C)c2c1[nH]c1ccccc21 [Example 151]
6.00 to 7.00

Please supply the value of reported pEC50 for the item CC(C)OC(=O)C1=CN(C(=O)c2cccc(Cl)c2)CC(C)(C)c2c1[nH]c1ccccc21 [Example 81]
7.00 to 8.00

Fill in pEC50 for record CC(C)OC(=O)C1=CN(C(=O)c2cccc(OCc3ccccc3)c2)CC(C)(C)c2c1[nH]c1ccccc21 [Example 127]
7.00 to 8.00

Give the measured pEC50 for CC(C)OC(=O)C1=CN(C(=O)N2CCC[C@H](CN3CCCCC3)C2)CC(C)(C)c2c1[nH]c1ccccc21 [Example 58]
5.00 to 6.00

State its pEC50: CC(C)OC(=O)C1=CN(C(=O)c2cccc(CN3CCN(S(=O)(=O)c4ccccc4)CC3)c2)CC(C)(C)c2c1[nH]c1ccccc21 [Example 167]
6.00 to 7.00

State, in one line, measured pEC50 of COc1ccccc1C(=O)N1C=C(C(=O)OC(C)C)c2[nH]c3ccccc3c2C(C)(C)C1 [Example 69]
7.00 to 8.00
